- System: NF-κB pathway (SEAP) in THP1-Dual cells
- measurement_description: THP-1 Dual cell SEAP assay (L18-MDP stimulated)
- Assay type: cell-based
- condition_info: Homo sapiens, THP1-Dual, read-out: NFkB THP1 IC50
pIC50: −log10 of the molar value.
Each item that follows carries a reported pIC50.

Solved cases (4 shown):
[[record]]
compound = "CCCS(=O)(=O)Nc1ccc(F)c(-c2cnc3cc(OC)c(S(=O)(=O)C(C)(C)C)cn23)c1 [Example 287]"
result = "< 6.00"

[[record]]
compound = "COc1cc2ncc(-c3cnc(N)c(C)c3)n2cc1S(=O)(=O)C(C)(C)C [Example 68]"
result = "< 6.00"

[[record]]
compound = "COc1cc2ncc(-c3cnc(N)c(F)c3F)n2cc1S(=O)(=O)C(C)(C)C [Example 164]"
result = "< 6.00"

[[record]]
compound = "COc1cc2ncc(-c3ccc(N)nc3OC)n2cc1S(=O)(=O)C(C)(C)C [Example 79]"
result = "< 6.00"


## Input So what's the measured pIC50 for this one? CCCS(=O)(=O)Nc1cc(-c2cnc3cc(OC)c(S(=O)(=O)C(C)(C)C)cn23)cc(F)n1 [Example 304]
## Output < 6.00

## Input So what's the measured pIC50 for this one? COc1cc2ncc(-c3cc(F)c(OC)c(NCCNC(=O)OC(C)(C)C)c3)n2cc1S(=O)(=O)C(C)(C)C [Example 308]
## Output 6.60 to 7.30

## Input So what's the measured pIC50 for this one? COc1cc2ncc(-c3cnc(N)c(C#N)c3)n2cc1S(=O)(=O)C(C)(C)C [Example 23]
## Output < 6.00

* * *

- system_under_test: GST-RIPK2 fusion protein (human RIPK2 amino acids 1-310) (Homo sapiens (Human), UniProt O43353)
- Sequence (O43353 1-310): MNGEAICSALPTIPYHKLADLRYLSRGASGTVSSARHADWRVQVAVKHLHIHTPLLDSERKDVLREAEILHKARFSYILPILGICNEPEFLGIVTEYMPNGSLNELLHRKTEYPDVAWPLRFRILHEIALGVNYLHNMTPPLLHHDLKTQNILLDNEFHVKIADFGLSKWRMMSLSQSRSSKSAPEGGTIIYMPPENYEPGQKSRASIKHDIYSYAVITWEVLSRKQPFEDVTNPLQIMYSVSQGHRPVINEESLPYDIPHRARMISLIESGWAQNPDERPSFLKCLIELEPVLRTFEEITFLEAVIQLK
- measurement_description: RIPK2 binding competition assay (TR-FRET, Tracer 199)
- condition_info: read-out: RIPK2 IC50; RIPK2 binding competition assay
readout_type: IC50

[[record]]
molecule = "CCOc1c(N)cc(-c2cnc3cc(OC)c(S(=O)(=O)C(C)(C)C)cn23)cc1F [Example 66]"
result = "> 20 nM"

[[record]]
molecule = "COc1cc2ncc(-c3cc(F)nc(NCc4ccc(=O)[nH]c4)c3)n2cc1S(=O)(=O)C(C)(C)C [Example 184]"
result = "< 1 nM"

[[record]]
molecule = "COc1cc2ncc(-c3ccc(F)c(N)c3)n2cc1S(=O)(=O)C(C)(C)C [Example 127]"
result = "> 20 nM"


Pending molecule:
## Input So what's the measured IC50 for this one? COc1cc2ncc(-c3cncc(N)c3)n2cc1S(=O)(=O)C(C)(C)C [Example 30]
## Output > 20 nM

* * *

- system_under_test: GST-RIPK2 fusion protein (human RIPK2 amino acids 1-310) (Homo sapiens (Human), UniProt O43353)
- measurement_description: RIPK2 binding competition assay (TR-FRET, Tracer 199)
readout_type: IC50

Solved cases (10 shown):
[[record]]
compound = "COc1cc2ncc(-c3cc(F)nc(NC[C@@H]4CCNC(=O)C4)c3)n2cc1S(=O)(=O)C(C)(C)C (single isomer, unassigned)"
readout_type = "IC50"
result = "1 to 2.5 nM"

[[record]]
compound = "COc1cc2ncc(-c3cc(F)cc(N)c3F)n2cc1S(=O)(=O)C(C)(C)C"
readout_type = "IC50"
result = "1 to 2.5 nM"

[[record]]
compound = "COc1cc2ncc(-c3cc(F)c(N)cc3F)n2cc1S(=O)(=O)C(C)(C)C"
readout_type = "IC50"
result = "2.5 to 20 nM"

[[record]]
compound = "COc1cc2ncc(-c3cc(F)c(N)nc3F)n2cc1S(=O)(=O)C(C)(C)C"
readout_type = "IC50"
result = "2.5 to 20 nM"

[[record]]
compound = "CC(C)(C)S(=O)(=O)c1ccn2ncc(-c3ccc(N)nc3F)c2c1"
readout_type = "IC50"
result = "> 20 nM"

[[record]]
compound = "COc1cc2ncc(-c3cc(F)nc(NC[C@H](C)O)c3)n2cc1S(=O)(=O)C(C)(C)C"
readout_type = "IC50"
result = "1 to 2.5 nM"

[[record]]
compound = "COc1cc2ncc(-c3cc(F)nc(NCCSC)c3)n2cc1S(=O)(=O)C(C)(C)C"
readout_type = "IC50"
result = "1 to 2.5 nM"

[[record]]
compound = "COc1cn2ncc(-c3ccc(N)c(C#N)c3)c2cc1S(=O)(=O)C(C)(C)C"
readout_type = "IC50"
result = "2.5 to 20 nM"

[[record]]
compound = "CC(C)(C)S(=O)(=O)c1ccc2ncc(-c3cc(F)nc(NCCCO)c3)n2c1"
readout_type = "IC50"
result = "2.5 to 20 nM"

[[record]]
compound = "COc1cc2ncc(-c3cc(C)c(OC)c(N)n3)n2cc1S(=O)(=O)C(C)(C)C"
readout_type = "IC50"
result = "> 20 nM"


## Input So what's the measured IC50 for this one? `COc1cc2ncc(-c3cnc(N)c(Cl)c3)n2cc1S(=O)(=O)C(C)(C)C`
## Output 2.5 to 20 nM

## Input So what's the measured IC50 for this one? `COc1cc2ncc(-c3cc(F)nc(NCCN4CCCC4=O)c3)n2cc1S(=O)(=O)C(C)(C)C`
## Output 1 to 2.5 nM

## Input So what's the measured IC50 for this one? `COc1cn2ncc(-c3cc(OC)c(N)nc3F)c2cc1S(=O)(=O)C(C)(C)C`
## Output 2.5 to 20 nM
